Here we list compounds with their recorded AC50 when tested on Vasopressin V2 receptor (Homo sapiens). Note: assay procedure not described here.
Sequence (P30518 whole entry): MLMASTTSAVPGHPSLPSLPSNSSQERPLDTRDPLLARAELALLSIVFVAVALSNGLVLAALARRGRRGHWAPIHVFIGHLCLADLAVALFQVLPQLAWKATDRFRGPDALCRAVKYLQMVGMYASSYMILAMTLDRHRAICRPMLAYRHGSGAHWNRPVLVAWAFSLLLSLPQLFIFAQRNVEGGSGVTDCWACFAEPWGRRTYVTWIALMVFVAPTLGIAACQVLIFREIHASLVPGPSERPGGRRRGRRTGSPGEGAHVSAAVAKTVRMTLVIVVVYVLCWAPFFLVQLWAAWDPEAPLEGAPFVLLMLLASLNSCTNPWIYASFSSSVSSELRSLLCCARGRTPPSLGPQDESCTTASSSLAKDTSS

Reference set, count: 4
INSERT INTO results (compound, assay_target, measurement) VALUES
  ('CC=CC(=O)N(CC)c1ccccc1C', 'Vasopressin V2 receptor (Homo sapiens)', '> 10 µM'),
  ('Cc1ccc(S(=O)(=O)NC(=O)NN2CC3CCCC3C2)cc1 (stereo not given) [GLICLAZIDE]', 'Vasopressin V2 receptor (Homo sapiens)', '> 10 µM'),
  ('CNS(=O)(=O)Cc1ccc2[nH]cc(CCN(C)C)c2c1', 'Vasopressin V2 receptor (Homo sapiens)', '> 30 µM'),
  ('CCOc1ccccc1OCC1CNCCO1 (stereo not given)', 'Vasopressin V2 receptor (Homo sapiens)', '> 30 µM');

Batch of 8 compounds: report AC50 for each.
1. CS(=O)(=O)c1ccc(C2=C(c3ccccc3)C(=O)OC2)cc1
2. Cc1ccc(-c2cc(C(F)(F)F)nn2-c2ccc(S(N)(=O)=O)cc2)cc1
3. CC(C(=O)O)c1ccc(N2Cc3ccccc3C2=O)cc1 (stereo not given)
4. O=P1(NCCCl)OCCCN1CCCl (stereo not given) [IFOSFAMIDE]
5. CCCCc1ncc(/C=C(\Cc2cccs2)C(=O)O)n1Cc1ccc(C(=O)O)cc1
6. CC[C@@H]1C(=O)OC[C@@H]1Cc1cncn1C
7. CC1(C)O[C@@H]2C[C@H]3[C@@H]4CCC5=CC(=O)C=C[C@]5(C)[C@H]4[C@@H](O)C[C@]3(C)[C@]2(C(=O)CO)O1 [DESONIDE]
8. Clc1ccc(C(c2ccccc2Cl)C(Cl)Cl)cc1 (stereo not given)

Result:
1. > 30 µM
2. > 30 µM
3. > 30 µM
4. > 30 µM
5. > 30 µM
6. > 30 µM
7. > 10 µM
8. > 10 µM

Batch of 6 compounds: report AC50 for each.
1. CC[C@@H](C(N)=O)N1CCCC1=O
2. Nc1nc(/C(=C/CC(=O)O)C(=O)N[C@@H]2C(=O)N3C(C(=O)O)=CCS[C@H]23)cs1
3. NCC(=O)CCC(=O)O
4. CN(C)CCC=C1c2ccccc2C=Cc2ccccc21
5. CN1CCC(=C2c3ccccc3CCc3sccc32)CC1
6. CN1C(C(=O)Nc2ccccn2)=C(O)c2sc(Cl)cc2S1(=O)=O

Result:
> 30 µM
> 30 µM
> 30 µM
> 30 µM
> 30 µM
> 30 µM

###

Here we list molecules with their recorded AC50 when tested on B2 bradykinin receptor (Homo sapiens). Note: assay procedure not described here.
Sequence (P30411 whole entry): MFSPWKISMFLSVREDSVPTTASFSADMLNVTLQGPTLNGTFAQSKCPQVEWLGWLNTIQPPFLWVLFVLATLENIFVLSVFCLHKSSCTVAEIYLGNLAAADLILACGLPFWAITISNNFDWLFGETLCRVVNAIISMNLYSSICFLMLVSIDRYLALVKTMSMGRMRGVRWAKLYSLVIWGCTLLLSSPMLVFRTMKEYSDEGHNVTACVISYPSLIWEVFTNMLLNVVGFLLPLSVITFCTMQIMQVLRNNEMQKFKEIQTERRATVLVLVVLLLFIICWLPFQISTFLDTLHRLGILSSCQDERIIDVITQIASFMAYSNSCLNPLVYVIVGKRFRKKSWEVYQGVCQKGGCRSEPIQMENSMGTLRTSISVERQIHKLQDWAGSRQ

INSERT INTO results (molecule, measurement) VALUES
  ('C#C[C@]1(O)CC[C@H]2[C@@H]3CCc4cc(OC5CCCC5)ccc4[C@H]3CC[C@@]21C', '> 10 µM'),
  ('CCOC(=O)[C@H](CCc1ccccc1)N[C@@H](C)C(=O)N1[C@H](C(=O)O)C[C@@H]2CCC[C@@H]21', '> 30 µM'),
  ('CCCN1C[C@H](CSC)C[C@@H]2c3cccc4[nH]cc(c34)C[C@H]21 [PERGOLIDE]', '> 30 µM'),
  ('O=C(O)CCCCCCNC1c2ccccc2CCc2ccccc21', '> 30 µM'),
  ('CC1(C)NC(=O)N(c2ccc([N+](=O)[O-])c(C(F)(F)F)c2)C1=O [NILUTAMIDE]', '> 30 µM');

Batch of 3 molecules: report AC50 for each.
1. Cc1cccc(C(C)c2cnc[nH]2)c1C (stereo not given)
2. O=P1(NCCCl)OCCCN1CCCl (stereo not given) [IFOSFAMIDE]
3. Cc1cn([C@H]2C[C@H](N=[N+]=[N-])[C@@H](CO)O2)c(=O)[nH]c1=O

Result:
> 30 µM
> 30 µM
> 30 µM

Batch of 6 molecules: report AC50 for each.
1. NC(=O)CN1CC(O)CC1=O (stereo not given)
2. CCCC1O[C@@H]2C[C@H]3[C@@H]4CCC5=CC(=O)C=C[C@]5(C)[C@H]4[C@@H](O)C[C@]3(C)[C@]2(C(=O)CO)O1 (stereo not given in full) [BUDESONIDE]
3. COc1cc2nc(N(C)CCCNC(=O)C3CCCO3)nc(N)c2cc1OC (stereo not given)
4. CC(C(=O)O)c1ccc(N2Cc3ccccc3C2=O)cc1 (stereo not given)
5. CCCC(C)C1(CC)C(=O)NC(=O)NC1=O (stereo not given)
6. OC(CNCC(O)C1CCc2cc(F)ccc2O1)C1CCc2cc(F)ccc2O1 (stereo not given)

Result:
1: > 30 µM; 2: > 10 µM; 3: > 30 µM; 4: > 30 µM; 5: > 10 µM; 6: > 30 µM
